test: MTS assay, viability of ZFL cells; assay type: cell-based, zebrafish; conditions: zebrafish, ZFL cells (zebrafish liver cell line); ZFL cells, 24 h exposure; read-out: IC50 for TKIs Cytotoxicity (95% Confidence Interval)
measuredMetric: IC50 at 24 h

Reference set (2 entries):
In [3]: df
Out[3]:
                                   compound  measuredmetric  reading
0  CNC(=O)c1cc(Oc2ccc(NC(=O)Nc3ccc(Cl)c(C(F)(F)F)c3)cc2)ccn1 [SOR, sorafenib]    IC50 at 24 h  6.93 µM
1  CNC(=O)c1cc(Oc2ccc(NC(=O)Nc3ccc(Cl)c(C(F)(F)F)c3)c(F)c2)ccn1 [REG, regorafenib]    IC50 at 24 h  5.64 µM

Okay, now this compound:
(Q) What does the data say about its IC50 at 24 h? Entry: Cc1nc(Nc2ncc(C(=O)Nc3c(C)cccc3Cl)s2)cc(N2CCN(CCO)CC2)n1 [DAS, dasatinib]
(A) 0.64 µM

###

Form field: IC50 at 72 h (one value per entry).
test: MTS assay, viability of ZFL cells; type: cell-based, zebrafish; conditions: zebrafish, ZFL cells (zebrafish liver cell line); ZFL cells, 72 h exposure; read-out: IC50 for TKIs Cytotoxicity (95% Confidence Interval)
Just the number please, in nM, no unit attached.

>>> df
                             compoundsmiles  reading
0  Cc1nc(Nc2ncc(C(=O)Nc3c(C)cccc3Cl)s2)cc(N2CCN(CCO)CC2)n1      160
1  CNC(=O)c1cc(Oc2ccc(NC(=O)Nc3ccc(Cl)c(C(F)(F)F)c3)cc2)ccn1     2710

Okay, now this compound:
(Q) What does the data say about its IC50 at 72 h? Entry: CNC(=O)c1cc(Oc2ccc(NC(=O)Nc3ccc(Cl)c(C(F)(F)F)c3)c(F)c2)ccn1
(A) 3590

###

test system: zebrafish liver cells (ZFL); experiment: MTS assay, viability of ZFL cells; format: cell-based; conditions: 24, 48, 72 h; dose- and time-dependent; ERL and NIL up to their maximum solubility
measuredMetric: viability of the ZFL cells

>>> print(df.to_string())
                             compoundsmiles  reading
0  Cc1nc(Nc2ncc(C(=O)Nc3c(C)cccc3Cl)s2)cc(N2CCN(CCO)CC2)n1  reduced
1  CNC(=O)c1cc(Oc2ccc(NC(=O)Nc3ccc(Cl)c(C(F)(F)F)c3)c(F)c2)ccn1  reduced
2  CNC(=O)c1cc(Oc2ccc(NC(=O)Nc3ccc(Cl)c(C(F)(F)F)c3)cc2)ccn1  reduced

# credit: paper PMC9965539
